The following molecules are listed with their measured inhibition values.
Assay: growth suppression of yeast trafficking mutant, preliminary HTS, modulators of trafficking downstream of Golgi apparatus project, 1536-format plate, OD 615 nm (AID 637); further: test concentration not given here
Settings: yeast transport mutant growth, absorbance 615 nm, 18 h; stronger effect = higher value

Molecule: CCOC(=O)c1cccc(NC(=O)CSc2nnc(-c3cccnc3)n2CC)c1
inhibition [%]: 0

Molecule: CN(C(=O)c1cc2sccc2n1C)C1CCCCC1
inhibition [%]: -2.13

Molecule: COc1ccccc1C(=O)Nc1ccc(S(=O)(=O)N2CCCC2)cc1
inhibition [%]: 0.49

Molecule: CCOC(=O)c1c(NC(=O)CSc2nc3c(c(=O)n(C)c(=O)n3C)n2C(C)C)sc(C)c1C
inhibition [%]: -3.23

Molecule: CC(C)Cn1c(CN(Cc2ccccc2)Cc2ccccc2)nc2c1c(=O)n(C)c(=O)n2C
inhibition [%]: 3.93

Molecule: CCOC(=O)C1CCCN(CCCc2ccccc2)C1 (stereo unspecified)
inhibition [%]: -1.9
